From: patent US20020114734A1

- System: D(II) FGF receptor 1
- ASSAY INFO: Microplate thermal shift screen of biochemical conditions, D(II) FGF receptor 1 stability
- Design: species or system human
- CONDITION DETAILS: additives in 50 mM MOPS pH 7, 0.1 M NaCl
MEASURED QUANTITY: effect on D(II) FGF receptor 1 stability

For record O=S(=O)([O-])[O-].[Mg+2] [MgSO4] the listed effect on D(II) FGF receptor 1 stability is stabilized the protein

Form: compound = N=C(N)NCCC[C@H](N)C(=O)O [arginine] ; effect on D(II) FGF receptor 1 stability = stabilized the protein

N.N.O=S(=O)(O)O [(NH4)2SO4] yielded effect on D(II) FGF receptor 1 stability of stabilizing effects

Briefly, effect on D(II) FGF receptor 1 stability measured for O=S(=O)([O-])[O-].[Li+].[Li+] [Li2SO4] : stabilizing effects

Per the record, O=S(=O)([O-])[O-].[Na+].[Na+] [Na2SO4] has effect on D(II) FGF receptor 1 stability of stabilizing effects

Shifting focus to the compound that follows.
OCC(O)CO [glycerol] yielded effect on D(II) FGF receptor 1 stability of stabilized the protein

----------
- SYSTEM TESTED: UniProt P00734
MEASURED QUANTITY: Kd

Recorded result, [Cl-].[Na+] [NaCl, sodium chloride] , Kd: ~6 mM
